test: Cmax in ICR mouse at 1 mg/kg, iv measured for 5 to 480 mins by LC-MS/MS analysis; assay type: ADME, organism-based; settings: in vivo, time 5-480 min
PROPERTY LABEL: Cmax
The reply should consist of the numeric value with the unit placed after it.

### Prompt Read the entry CCc1nnc2ccc(-c3nc4cnc(-c5cnn(C)c5)cn4c3Nc3ccc(F)cc3Br)cn12 and write its reported Cmax.
### Response 4410 ng/mL

====

experiment: Tmax in ICR mouse at 10 mg/kg, po measured for 5 to 480 mins by LC-MS/MS analysis; type: ADME, organism-based; settings: in vivo, time 5-480 min
PROPERTY LABEL: Tmax (min)
Response body: numeric value in min, unit text excluded.

### Prompt Return value of Tmax for input CCc1nnc2ccc(-c3nc4cnc(-c5cnn(C)c5)cn4c3Nc3ccc(F)cc3Br)cn12 , no commentary.
### Response 30

====

test: AUC (0 to t) in ICR mouse at 1 mg/kg, iv measured for 5 to 480 mins by LC-MS/MS analysis; format: ADME, organism-based; details: in vivo, time 5-480 min
PROPERTY LABEL: AUC(0-t) (ng·h/mL)
Report the value in ng·h/mL with no unit label.

### Prompt Give me measured AUC(0-t), please, for this compound: CCc1nnc2ccc(-c3nc4cnc(-c5cnn(C)c5)cn4c3Nc3ccc(F)cc3Br)cn12
### Response 4640

====

assay: Blood concentration elimination rate constant for the terminal phase in ICR mouse at 10 mg/kg, po measured for 5 to 480 mins by LC-MS/MS analysis; format: ADME, organism-based; conditions: time 5-480 min, read-out: LambdaZ (converted)
PROPERTY LABEL: k el (s⁻¹)
Express the result in s⁻¹ but write the number alone.

### Prompt Check the records and state k el for CCc1nnc2ccc(-c3nc4cnc(-c5cnn(C)c5)cn4c3Nc3ccc(F)cc3Br)cn12
### Response 9.72e-05
